Reported Percent Control values for a set of compounds
Test system: MINK
Construct: gene MINK1
Conditions: Compound Concentration (nM):1000;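 further: KINOMEscan scanMAX binding as percent activity remaining versus control; lower means stronger binding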
endpoint.label: Percent Control (%)

compound | target | measurement.units | observed.result
NS(=O)(=O)c1ccc(N/N=C2\C(=O)Nc3ccc(C(=O)NCCc4c[nH]cn4)cc32)cc1 [GW300660X] | MINK | % | 43
Cl.O=C(O[C@H]1CN[C@H](C#Cc2cc3ncnc(Nc4ccc5c(cnn5Cc5ccccc5)c4)c3s2)C1)N1CCOCC1 [GSK200398A] | MINK | % | 98
COc1ccc2[nH]c3c4[nH]c5ccc(OC)cc5c4c4c(c3c2c1)C(=O)NC4=O [GW296115X] | MINK | % | 1.7

---

Reported Percent Control values for a set of compounds
Tested on: SRPK1
Conditions: Compound Concentration (nM):1000
endpoint.label: Percent Control (%)

compound | observed.result
COC(=O)Nc1nc2ccc(Oc3ccc(NC(=O)Nc4cc(C(F)(F)F)ccc4F)cc3)cc2s1.Cl [GW693917A] | 86
COc1cccc(-n2ncc3c(N/N=C/c4ccncc4)ncnc32)c1 [GW784752X] | 94
NS(=O)(=O)c1ccc(N/N=C2\C(=O)Nc3ccc(C(=O)NCc4ccncc4)cc32)cc1 [GW300657X] | 89
Cl.O=C(Nc1ccc(Oc2ccc3[nH]c(NC(=O)c4ccco4)nc3c2)cc1)Nc1cc(C(F)(F)F)ccc1F [GW683134A] | 100
CC(C)COC(=O)c1ccc2c(c1)/C(=C/Nc1ccc(S(N)(=O)=O)cc1)C(=O)N2 [GW416981X] | 100
C[C@@H](Oc1cc(-n2cnc3ccc(OC4CCN(C)CC4)cc32)sc1C(N)=O)c1ccccc1Cl [GSK579289A] | 92
NS(=O)(=O)c1ccc(N/N=C2\C(=O)Nc3ccc(Cl)cc32)cc1 [GW280670X] | 97
COc1ccc2cc(-c3c(-c4ccncc4)nc(-c4ccc(S(C)(=O)=O)cc4C)n3C)ccc2c1 [SB-633825] | 90
Cl.c1ccc(Cc2nc3ccc(Nc4ncnc5ccccc45)cc3[nH]2)cc1 [GR269666A] | 100
CC1=C(C(=O)Nc2ccc3[nH]ncc3c2)C(c2ccc3ccccc3c2)CC(=O)N1 (stereo not drawn) [GSK270822A] | 85
Nc1ncnc2occ(-c3ccc(NC(=O)Nc4cc(C(F)(F)F)ccc4F)cc3)c12 [GW770249X] | 74
NS(=O)(=O)c1ccc(N/N=C2\C(=O)Nc3ccc(C(=O)NCCc4c[nH]cn4)cc32)cc1 [GW300660X] | 86
O=C1Nc2ccc(C(=O)c3ccco3)cc2C1=Cc1cc(Cl)c(O)c(Cl)c1 [GW406108X] | 88
CCS(=O)(=O)c1ccc(OC)c(Nc2ncc(-c3cccc(OC)c3)o2)c1 [GW580509X] | 96
COc1cc(/C=N/Nc2ncnc3[nH]ncc23)ccc1O [GW578748X] | 97
CN1CCN(C(=O)c2ccc(NC(=O)Nc3ccc(N(C)c4ccnc(Nc5ccc(CS(C)(=O)=O)cc5)n4)cc3)cc2)CC1.Cl [GW830263A] | 2.3
COc1cc(C)c(N(C)C(=O)CN(C)C)cc1Nc1nc(Nc2cccc(F)c2C(N)=O)c2cc[nH]c2n1 [GSK2219385] | 90
COc1ccc2c(-c3ccnc(Nc4cccc(OC(F)(F)F)c4)n3)cnn2n1 [GW810372X] | 88
C/C(Nc1ccc(S(N)(=O)=O)cc1)=C1/C(=O)Nc2ccccc21 [GW335962X] | 82
O=C(Nc1n[nH]c2nc(-c3ccc(O)cc3)c(Br)cc12)C1CC1 [SB-725317] | 100
COc1ccc2[nH]c3c4[nH]c5ccc(OC)cc5c4c4c(c3c2c1)C(=O)NC4=O [GW296115X] | 86
Cc1cc(O)cc(C)c1/C=C/c1cncc(C(N)=O)c1 [GW435821X] | 88
NS(=O)(=O)c1ccc(Nc2ncc(-c3ccccc3)o2)cc1 [GW572399X] | 94
CCn1c(-c2nonc2N)nc2c(C#CC(C)(C)O)nc(OCCNC)cc21.Cl [GSK949675] | 84

---

Test system: ABL1(M351T)-phosphorylated
Conditions: Compound Concentration (nM):1000
Reported Percent Control values for a set of compounds
endpoint.label: Percent Control (%)

compound | target | endpoint.label | observed.result
COc1ccccc1-c1cc(/C=C2\C(=O)Nc3ncc(Br)cc32)cc(Br)c1O [GW442130X] | ABL1(M351T)-phosphorylated | Percent Control | 100
Cl.O=C(O[C@H]1CN[C@H](C#Cc2cc3ncnc(Nc4ccc5c(cnn5Cc5ccccc5)c4)c3s2)C1)N1CCOCC1 [GSK200398A] | ABL1(M351T)-phosphorylated | Percent Control | 100
NS(=O)(=O)c1ccc(N/N=C2\C(=O)Nc3ccc(-c4cnco4)cc32)cc1 | ABL1(M351T)-phosphorylated | Percent Control | 92
COc1ccc2[nH]c3c4[nH]c5ccc(OC)cc5c4c4c(c3c2c1)C(=O)NC4=O [GW296115X] | ABL1(M351T)-phosphorylated | Percent Control | 68
C[C@@H](Oc1cc(-n2cnc3ccc(OC4CCN(C)CC4)cc32)sc1C(N)=O)c1ccccc1Cl [GSK579289A] | ABL1(M351T)-phosphorylated | Percent Control | 80
COc1ccc2c(-c3ccnc(Nc4cccc(OC(F)(F)F)c4)n3)cnn2n1 [GW810372X] | ABL1(M351T)-phosphorylated | Percent Control | 97
CC(C)COC(=O)c1ccc2c(c1)/C(=C/Nc1ccc(S(N)(=O)=O)cc1)C(=O)N2 [GW416981X] | ABL1(M351T)-phosphorylated | Percent Control | 100
NS(=O)(=O)c1ccc(N/N=C2\C(=O)Nc3ccc(C(=O)NCc4ccncc4)cc32)cc1 [GW300657X] | ABL1(M351T)-phosphorylated | Percent Control | 91

---

Tested on: MAP3K4
Details: Compound Concentration (nM):1000

compound | target | measurement.units | Percent Control
CN(C)c1cc2c(Nc3ccc4c(cnn4Cc4ccccc4)c3)ncnc2cn1 [GW282974X] | MAP3K4 | % | 88
COc1cc(/C=N/Nc2ncnc3[nH]ncc23)ccc1O [GW578748X] | MAP3K4 | % | 93
COc1ccccc1-c1cc(/C=C2\C(=O)Nc3ncc(Br)cc32)cc(Br)c1O [GW442130X] | MAP3K4 | % | 100
CC(C)COC(=O)c1ccc2c(c1)/C(=C/Nc1ccc(S(N)(=O)=O)cc1)C(=O)N2 [GW416981X] | MAP3K4 | % | 100
NS(=O)(=O)c1ccc(N/N=C2\C(=O)Nc3ccc(Cl)cc32)cc1 [GW280670X] | MAP3K4 | % | 100
COc1cc2ncn(-c3cc(O[C@H](C)c4ccccc4Cl)c(C(N)=O)s3)c2cc1OC [GSK237701A] | MAP3K4 | % | 100
NS(=O)(=O)c1ccc(N/N=C2\C(=O)Nc3ccc(C(=O)NCc4ccncc4)cc32)cc1 [GW300657X] | MAP3K4 | % | 99
CN(C)CCNC(=O)Nc1ccc(N(C)c2ccnc(Nc3ccc(CS(C)(=O)=O)cc3)n2)cc1.Cl [GW830900A] | MAP3K4 | % | 99
COc1cccc(-n2ncc3c(N/N=C/c4ccncc4)ncnc32)c1 [GW784752X] | MAP3K4 | % | 89
COc1ccc2cc(-c3c(-c4ccncc4)nc(-c4ccc(S(C)(=O)=O)cc4C)n3C)ccc2c1 | MAP3K4 | % | 90
Nc1ncnc2occ(-c3ccc(NC(=O)Nc4cc(C(F)(F)F)ccc4F)cc3)c12 [GW770249X] | MAP3K4 | % | 94
CN1CCN(C(=O)c2ccc(NC(=O)Nc3ccc(N(C)c4ccnc(Nc5ccc(CS(C)(=O)=O)cc5)n4)cc3)cc2)CC1.Cl [GW830263A] | MAP3K4 | % | 4
CCc1ccc(Oc2nccc(-c3c(-c4ccc(F)cc4)ncn3C3CCNCC3)n2)cc1 | MAP3K4 | % | 93
COc1cc(C=NNc2ncnc3c2cnn3-c2ccccc2)ccc1O [GW513184X] | MAP3K4 | % | 100
COc1cccc(-c2c[nH]c3c(N/N=C/c4ccncc4)ncnc23)c1 [GW814408X] | MAP3K4 | % | 100
CCS(=O)(=O)c1ccc(OC)c(Nc2ncc(-c3cccc(OC)c3)o2)c1 [GW580509X] | MAP3K4 | % | 100
CC1=C(C(=O)Nc2ccc3[nH]ncc3c2)C(c2ccc3ccccc3c2)CC(=O)N1 (stereo not shown) [GSK270822A] | MAP3K4 | % | 100
COc1cc2ncnc(Nc3ccc4c(cnn4Cc4ccccc4)c3)c2cc1OC.Cl [GW282449A] | MAP3K4 | % | 100
O=C1Nc2ccc(C(=O)c3ccco3)cc2C1=Cc1cc(Cl)c(O)c(Cl)c1 [GW406108X] | MAP3K4 | % | 100
Cl.O=S1CCN(Cc2ccc(-c3ccc4ncnc(Nc5ccc(OCc6ccccc6)c(F)c5)c4c3)o2)CC1 [GW576924A] | MAP3K4 | % | 100
NS(=O)(=O)c1ccc(N/N=C2\C(=O)Nc3ccc(C(=O)NCCc4c[nH]cn4)cc32)cc1 [GW300660X] | MAP3K4 | % | 100
NS(=O)(=O)c1ccc(N/N=C2\C(=O)Nc3ccc(-c4cnco4)cc32)cc1 | MAP3K4 | % | 82
Cl.O=C(Nc1ccc(Oc2ccc3[nH]c(NC(=O)c4ccco4)nc3c2)cc1)Nc1cc(C(F)(F)F)ccc1F [GW683134A] | MAP3K4 | % | 86
CCn1c(-c2nonc2N)nc2c(C#CC(C)(C)O)nc(OCCNC)cc21.Cl | MAP3K4 | % | 100
COc1cc(C)c(N(C)C(=O)CN(C)C)cc1Nc1nc(Nc2cccc(F)c2C(N)=O)c2cc[nH]c2n1 | MAP3K4 | % | 90
